Molecular target: DGKα (Homo sapiens (Human), UniProt P23743)
Sequence (P23743 other isoform, or with tags, fused parts or gaps): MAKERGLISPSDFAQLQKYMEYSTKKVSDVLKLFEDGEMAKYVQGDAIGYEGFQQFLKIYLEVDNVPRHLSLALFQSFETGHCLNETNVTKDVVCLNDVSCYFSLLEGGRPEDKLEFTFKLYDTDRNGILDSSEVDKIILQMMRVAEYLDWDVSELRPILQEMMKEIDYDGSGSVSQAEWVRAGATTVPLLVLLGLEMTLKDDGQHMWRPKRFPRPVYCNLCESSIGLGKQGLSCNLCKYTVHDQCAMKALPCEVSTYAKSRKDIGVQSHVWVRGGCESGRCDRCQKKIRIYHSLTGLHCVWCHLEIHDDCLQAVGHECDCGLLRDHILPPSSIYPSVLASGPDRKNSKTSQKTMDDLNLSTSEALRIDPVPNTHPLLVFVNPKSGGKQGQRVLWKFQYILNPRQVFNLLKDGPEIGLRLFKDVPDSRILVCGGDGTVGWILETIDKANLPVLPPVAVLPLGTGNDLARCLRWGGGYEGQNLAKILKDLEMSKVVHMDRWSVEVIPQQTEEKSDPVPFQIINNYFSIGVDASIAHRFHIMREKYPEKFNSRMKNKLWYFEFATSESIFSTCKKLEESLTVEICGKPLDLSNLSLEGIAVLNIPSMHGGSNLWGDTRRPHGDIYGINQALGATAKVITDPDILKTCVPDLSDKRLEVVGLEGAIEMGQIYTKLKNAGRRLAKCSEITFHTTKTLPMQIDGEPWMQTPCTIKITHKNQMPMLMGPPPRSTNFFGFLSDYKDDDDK
Assay: Human DGKα kinase activity inhibition assay (ADP-Glo)
Details: recombinant full-length human DGKα, 55 μM ATP, 7 μM 1,2-dioleoyl-sn-glycerol, read-out: IC50 values of examples in in vitro human DGKa kinase activity inhibition assays
pIC50: −log10 of the molar value.
// reported pIC50 per item
metricName: pIC50

* COc1ccc(C2CCN(c3c(C#N)c(=O)n(C)c4ccccc34)CC2)cn1 | 7.24
* Cc1ccc2nc(C3(C)CCN(c4c(C(N)=O)c(=O)n(C)c5ccc(C)cc45)CC3)oc2c1 | 8.66
* Cn1c(=O)c(C#N)c(N2CCC(c3nc4ccccc4o3)CC2)c2cccc(Br)c21 | 5.96
* Cn1c(=O)c(C(N)=O)c(N2CCC(c3ccc4c(c3)C3(CCC3)C(=O)N4)CC2)c2ccccc21 | 7.48
* Cc1cccc(-c2noc(C3CCN(c4c(C(N)=O)c(=O)n(C)c5ccccc45)CC3)n2)c1 | 8.46
* Cc1ccc2oc(C3CCN(c4c(C(N)=O)c(=O)n(C)c5cc(OC6COC6)ccc45)CC3)nc2c1 | 8.70
* COc1ccc(C2CCN(c3c(C#N)c(=O)n(C)c4cc(N=S(C)(C)=O)ccc34)CC2)cc1 | 7.19
* CC(C)c1ccc2oc(C3(C)CCN(c4c(C(N)=O)c(=O)n(C)c5ccccc45)CC3)nc2c1 | 9.22
* COc1ccc2c(c1)c(N1CCC(c3nc(-c4cccc(C)c4)no3)CC1)c(C#N)c(=O)n2C | 7.49
* COc1ccc2c(N3CCC(c4nc5ccccc5o4)CC3)c(C#N)c(=O)n(C)c2c1 | 8.46
* Cn1ccc2c(F)cc(C3CCN(c4c(C(N)=O)c(=O)n(C)c5ccccc45)CC3)cc21 | 8.41
* COc1ccc2c(N3CCC(c4nc5cc(F)c(F)cc5o4)CC3)c(C#N)c(=O)n(C)c2c1 | 7.82
* Cn1c(=O)c(C#N)c(N2CCC(c3cccc(C#N)c3)CC2)c2ccccc21 | 7.07
* Cc1ccc2oc(C3(C)CCN(c4c(C#N)c(=O)n(C)c5ccc(O)cc45)CC3)nc2c1 | 8.57
* Cc1ccc(C2CCN(c3c(C#N)c(=O)n(C)c4ccccc34)CC2)cn1 | 6.26
* Cc1ccc2oc(C3(C)CCN(c4c(C#N)c(=O)n(C)c5ccc(N6C[C@H](O)CC6=O)cc45)CC3)nc2c1 | 6.61
* Cc1ccc2c(c1)c(N1CCC(c3nc4cc(C(C)C)ccc4o3)CC1)c(C#N)c(=O)n2C | 8.04
* Cc1ccc2oc(C3CCN(c4c(C(N)=O)c(=O)n(C)c5ccc(C(N)=O)cc45)CC3)nc2c1 | 7.13
* COc1ccc2c(c1)c(N1CCC(c3nc(-c4ccccc4)no3)CC1)c(C(N)=O)c(=O)n2C | 7.37
* COc1ccc2c(N3CCC(c4nc5ccccc5s4)CC3)c(C#N)c(=O)n(C)c2c1 | 8.60
* COCc1ccc2nc(C3(C)CCN(c4c(C(N)=O)c(=O)n(C)c5ccccc45)CC3)oc2c1 | 8.04
* Cc1ccc2oc(C3(C)CCN(c4c(C#N)c(=O)n(C)c5cc(O)c(Br)cc45)CC3)nc2c1 | 9.00
* Cn1c(=O)c(C#N)c(N2CCC(c3ccccc3)CC2)c2ccc(Br)cc21 | 8.26
* Cn1c(=O)c(C#N)c(N2CCC(C)(c3nc4ccccc4o3)CC2)c2ccccc21 | 8.85
* Cn1c(=O)c(C#N)c(N2CCC(c3nc4cccc(F)c4o3)CC2)c2ccccc21 | 8.59
* COCc1ccc2nc(C3(C)CCN(c4c(C#N)c(=O)n(C)c5ccccc45)CC3)oc2c1 | 8.17
* Cn1c(=O)c(C#N)c(N2CCC(c3nc4ccccc4o3)CC2)c2ccc(F)cc21 | 8.37
* Cc1ccc2oc(C3CCN(c4c(C(N)=O)c(=O)n(C)c5cc(N(C)C6COC6)ccc45)CC3)nc2c1 | 8.21
* Cc1ccc(C2CCN(c3c(C#N)c(=O)n(C)c4ccccc34)CC2)cc1 | 8.36
* Cc1ccc2c(c1)c(N1CCC(c3nc4ccccc4s3)CC1)c(C#N)c(=O)n2C | 8.77
* Cc1ccc2c(c1)c(N1CCC(C)(c3nc4cc(C(C)C)ccc4o3)CC1)c(C(N)=O)c(=O)n2C | 8.47
* Cn1c(=O)c(C#N)c(N2CCC(c3nc(-c4ccccc4)no3)CC2)c2cc(Br)ccc21 | 8.05
